target: Advanced glycosylation end product-specific receptor (Homo sapiens, UniProt Q15109); assay: Binding affinity to human recombinant biotinylated receptor for advanced glycation end product expressed in Escherichia coli DE3 after 1 min by surface plasmon resonance assay
Sequence (Q15109 whole entry): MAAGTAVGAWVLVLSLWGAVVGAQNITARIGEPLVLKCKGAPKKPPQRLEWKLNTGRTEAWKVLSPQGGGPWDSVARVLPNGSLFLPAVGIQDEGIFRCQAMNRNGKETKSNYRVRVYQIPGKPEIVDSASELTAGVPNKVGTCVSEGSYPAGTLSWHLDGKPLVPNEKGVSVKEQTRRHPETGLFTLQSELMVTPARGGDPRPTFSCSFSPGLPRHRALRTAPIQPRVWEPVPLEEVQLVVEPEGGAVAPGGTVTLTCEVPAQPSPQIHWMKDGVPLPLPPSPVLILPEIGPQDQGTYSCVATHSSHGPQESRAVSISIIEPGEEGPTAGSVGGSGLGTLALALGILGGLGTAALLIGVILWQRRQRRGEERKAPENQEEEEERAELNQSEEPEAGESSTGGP
measured_endpoint: pKd
When answering, recall that pKd equals minus log10 of the concentration in mol/L, and write that number alone.

[ask] Give its pKd value. Item: CCN(CC)CCOc1cccc(Nc2nc(-c3ccc(Cl)cc3)cc(-c3ccc(Cl)cc3)n2)c1
[reply] 3.99

----------
molecular target: Advanced glycosylation end product-specific receptor (Homo sapiens, UniProt Q15109); test: Inhibition of human recombinant biotinylated receptor for advanced glycation end product expressed in Escherichia coli DE3 assessed as inhibition of binding to amyloid beta (1 to 42) at 20 uM after 60 mins by TMB-ELISA
Active and inactive are the calls of the source. The rule behind the calls is not given here.
measured_endpoint: inhibition

Completed entries (count: 8):
structure_smiles	result_value
CCN(CC)CCOc1cccc(Nc2nc(-c3ccc(Cl)cc3)cc(-n3cccc3)n2)c1	26.3%
CCN(CC)CCOc1cccc(Nc2nc(-c3ccc(Cl)cc3)cc(N3CCOCC3)n2)c1	3.1%
CCN(CC)CCOc1ccccc1Nc1nc(C)cc(-c2ccc(Cl)cc2)n1	47.2%
CCN(CC)CCOc1ccc(Nc2nc(C)cc(-c3ccc(OC)cc3)n2)cc1	31.7%
CCN(CC)CCOc1ccc(Nc2nc(C)cc(-c3ccc(Oc4ccc(Cl)cc4)cc3)n2)cc1	21.1%
CCN(CC)CCOc1cccc(Nc2nc(C)cc(-c3ccc(OC)cc3)n2)c1	30.9%
CCN(CC)CCCCNc1nc(C)c(O)c(C)n1	inactive
CCN(CC)CCCCNc1nc(C)c(OCc2ccccc2)c(C)n1	inactive

Now consider a different molecule.
[ask] Give its inhibition value. Item: CCN(CC)CCOc1cccc(Nc2nc(-c3ccc(Cl)cc3)cc(N3CCCCC3)n2)c1
[reply] 17.1%

----------
molecular target: Advanced glycosylation end product-specific receptor (Homo sapiens); experiment: Inhibition of human recombinant biotinylated receptor for advanced glycation end product expressed in Escherichia coli DE3 assessed as inhibition of binding to amyloid beta (1 to 42) at 20 uM after 60 mins by TMB-ELISA
Calls of active or inactive are those of the source. The rule behind the calls is not given here.
measured_endpoint: inhibition

Completed entries (count: 5):
structure_smiles	test_target	result_value
CCN(CC)CCOc1ccc(Nc2nc(-c3ccc(Cl)cc3)cc(-c3ccc(Cl)cc3)n2)cc1	Advanced glycosylation end product-specific receptor (Homo sapiens)	33.6%
CCN(CC)CCOc1cccc(Nc2nc(C)cc(C)n2)c1	Advanced glycosylation end product-specific receptor (Homo sapiens)	20.8%
CCN(CC)CCCC(=O)Nc1nc(C)c(OC)c(C)n1	Advanced glycosylation end product-specific receptor (Homo sapiens)	inactive
COc1c(C)nc(NC(=O)CCCO)nc1C	Advanced glycosylation end product-specific receptor (Homo sapiens)	inactive
CCN(CC)CCOc1cccc(Nc2nc(-c3ccc(Cl)cc3)cc(N3CCN(C)CC3)n2)c1	Advanced glycosylation end product-specific receptor (Homo sapiens)	4.5%

[ask] Give its inhibition value. Item: CCN(CC)CCOc1ccc(Nc2nc(C)cc(Nc3ccccc3)n2)cc1
[reply] 32.7%

[ask] CCN(CC)CCOc1ccc(Nc2nc(C)cc(-c3ccc(OCCc4ccc(Cl)cc4)cc3)n2)cc1 ?
[reply] inactive

[ask] CCN(CC)CCCC(=O)Nc1nc(C)c(O)c(C)n1 ?
[reply] inactive

[ask] Cc1nc(NC(=O)CCCO)nc(C)c1OCc1ccccc1 ?
[reply] inactive

[ask] CCN(CC)CCOc1ccc(Nc2nc(C)cc(-c3ccc(OCCc4ccccc4)cc3)n2)cc1 ?
[reply] inactive

[ask] CCN(CC)CCOc1ccc(Nc2nc(C)c(O)c(C)n2)cc1 ?
[reply] 16.2%
